tested on: OVCAR-8 (Ovarian Carcinoma); assay: Bliss excess, mean over the matrix (fraction); higher = more synergy;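 also: after 72 h of two-drug dosing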

compound: CC1(C)CCC(CN2CCN(c3ccc(C(=O)NS(=O)(=O)c4ccc(NCC5CCOCC5)c([N+](=O)[O-])c4)c(Oc4cnc5[nH]ccc5c4)c3)CC2)=C(c2ccc(Cl)cc2)C1 [Venetoclax] + C[C@@H](Nc1cc(F)cc(F)c1)c1cc(C(=O)N(C)C)cc2c(=O)cc(N3CCOCC3)oc12 [AZD8186] (first compound max 1 µM, 7x7, partner max 3 µM)
Bliss excess: -0.0162

compound: NC1(C(=O)N[C@@H](CCO)c2ccc(Cl)cc2)CCN(c2ncnc3[nH]ccc23)CC1 [Capivasertib] + CC(C)n1c(=O)n(C)c2cnc3cc(F)c(-c4ccc(OCCCN5CCCCC5)nc4)cc3c21 [AZD1390] (first compound max 10 µM, 7x7, partner max 0.3 µM)
Bliss excess: -0.0304

----------
system: SW1116 (Colorectal Carcinoma); test: Bliss excess, mean over the matrix (fraction); higher = more synergy
// label = criterion met if Bliss excess is not less than -0.01, otherwise criterion not met

compound: CN(CCO)CC[C@H](CSc1ccccc1)Nc1ccc(S(=O)(=O)NC(=O)c2ccc(N3CCC([C@@H](O)c4ccccc4-c4ccc(Cl)cc4)CC3)cc2)cc1S(=O)(=O)C(F)(F)F [AZD4320] + C[C@@H](Nc1cc(F)cc(F)c1)c1cc(C(=O)N(C)C)cc2c(=O)cc(N3CCOCC3)oc12 [AZD8186] (first compound max 1 µM, 7x7, partner max 3 µM)
answer.label: criterion met
--
compound: CN(C)CCCOc1ccc(-c2ccc3ncc4c(c3c2)n(C2CCOCC2)c(=O)n4C)cn1 [AZD0156] + C=CCn1c(=O)c2cnc(Nc3ccc(N4CCN(C)CC4)cc3)nc2n1-c1cccc(C(C)(C)O)n1 [AZD1775] (first compound max 1 µM, partner max 1 µM)
answer.label: criterion not met
--
compound: C[C@@H]1COCCN1c1cc(C2([S@](C)(=N)=O)CC2)nc(-c2ccnc3[nH]ccc23)n1 [AZD6738] + O=C(c1cc(Cc2n[nH]c(=O)c3ccccc23)ccc1F)N1CCN(C(=O)C2CC2)CC1 [Olaparib] (first compound max 10 µM, 7x7, partner max 10 µM)
answer.label: criterion not met
--
compound: CN(CCO)CC[C@H](CSc1ccccc1)Nc1ccc(S(=O)(=O)NC(=O)c2ccc(N3CCC([C@@H](O)c4ccccc4-c4ccc(Cl)cc4)CC3)cc2)cc1S(=O)(=O)C(F)(F)F [AZD4320] + Nc1ccn([C@@H]2O[C@H](CO)[C@@H](O)C2(F)F)c(=O)n1 [Gemcitabine] (first compound max 1 µM, 7x7, partner max 0.3 µM)
answer.label: criterion not met
--
compound: N#Cc1cnc(Nc2cc(NC[C@H]3CNCCO3)c(C(F)(F)F)cn2)cn1 [SRA737] + CCc1c2c(nc3ccc(O)cc13)-c1cc3c(c(=O)n1C2)COC(=O)[C@]3(O)CC [SN-38] (first compound max 10 µM, 7x7, partner max 0.3 µM)
answer.label: criterion met
--
compound: COc1nnc2ccc(N3CCC(c4ccc(OCCN5CCN(C)C(=O)[C@H]5C)cc4)CC3)nn12 [AZD5153] + Cn1cnc2c(F)c(Nc3ccc(Br)cc3Cl)c(C(=O)NOCCO)cc21 [Selumetinib] (first compound max 1 µM, 7x7, partner max 10 µM)
answer.label: criterion met
